MEASURED_TARGET: T1, Activin B (UniProt P09529 293-407)
T1 sequence (looked up): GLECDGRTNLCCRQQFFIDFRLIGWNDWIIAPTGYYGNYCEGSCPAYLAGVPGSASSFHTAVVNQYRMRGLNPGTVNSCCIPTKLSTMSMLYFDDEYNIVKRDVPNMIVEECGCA
PROCEDURE_TEXT: SPR (Biacore 8K), Fc protein captured on anti-human IgG, ligand injected
QUANTITY: Kd (pM)
Provide only the numeric value, understood in pM.

BINDER	Kd / pM
ActRIIB-A2 (SEQ ID NO: 121) chimera-Fc protein (Fc fusion, Tested as chimera-Fc protein; not shown: linker (if any) and Fc domain) GRGEAETRECIYYNANWEKDRTNQSGLERCEGEQDKRLHCYASWRNSSGTIELVKKGCWLDDFNCYDRQECVATEENPQVYFCCCEGNFCNERFTHLPEAGGPEVTYEPPPTAPT	8.78
ActRIIB-B3 (SEQ ID NO: 112) chimera-Fc protein (Fc fusion, Tested as chimera-Fc protein; not shown: linker (if any) and Fc domain) GRGEAETRECIYYNANWELERTNQSGLERCEGEQDKRRHCFATWKNISGTIELVKKGCWLDDFNCYDRQECVATEENPQVYFCCCEGNFCNERFTHLPEAGGPEVTYEPPPTAPT	5.81
ActRIIB-B1B2B3B4 (SEQ ID NO: 119) chimera-Fc protein (Fc fusion, Tested as chimera-Fc protein; not shown: linker (if any) and Fc domain) GRGEAETRECLFFNANWELERTNQTGVEPCEGEQDKRRHCFATWKNISGSIEIVKQGCWLDDFNCYDRQECVATEENPQVYFCCCEGNFCNERFTHLPEAGGPEVTYEPPPTAPT	19.7
ActRIIA-B1B4 (SEQ ID NO: 102) chimera-Fc protein (Fc fusion, Tested as chimera-Fc protein; also called ActRIIA-B1β4; not shown: linker (if any) and Fc domain) GAILGRSETQECIYYNANWEKDRTNQTGVEPCYGDKDKRRHCFATWKNISGTIELVKKGCWLDDINCYDRTDCVEKKDSPEVYFCCCEGNMCNEKFSYFPEMEVTQPTS	5.31
ActRIIB-B1B4 (SEQ ID NO: 117) chimera-Fc protein (Fc fusion, Tested as chimera-Fc protein; not shown: linker (if any) and Fc domain) GRGEAETRECLFFNANWELERTNQSGLERCEGEQDKRLHCYASWRNSSGSIEIVKQGCWLDDFNCYDRQECVATEENPQVYFCCCEGNFCNERFTHLPEAGGPEVTYEPPPTAPT	70.2

Okay, now this binder:
The binder identified as ActRIIA-A3 (SEQ ID NO: 106) chimera-Fc protein (Fc fusion, Tested as chimera-Fc protein; not shown: linker (if any) and Fc domain) GAILGRSETQECLFFNANWEKDRTNQTGVEPCEGEQDKRRHCFATWKNISGSIEIVKQGCWLDDINCYDRTDCVEKKDSPEVYFCCCEGNMCNEKFSYFPEMEVTQPTS registered its Kd at 75.5
